Each recorded value in this set is attributed to patent US20230279130A1.

- TEST TARGET: full length human CCR8 (hCCR8) (human, UniProt P51685 1-355)
- PROTOCOL DESCRIPTION: cell-based or functional assay
Recorded average IC50 of inhibition of CCL1-mediated chemotaxis of hCCR8 P815 cells values for a group of binders are listed next.

Here are 2 binders together with their reported answers.
engineered anti CCR8 Fab 1047 (Fab, V domains shown, Fab made by digesting the antibody; also called Fab fragment of 1047) VH: EVQLVESGGGVVQPGRSLRLSCAASGFPFEPFAMNWVRQAPGKGLEWVARIRSKANNYATYYADSVKDRFAISRDNSKSTLYLLMHSLRFEDTAVYYCVRGRENNYGYAMDYWGQGTTVTVSS VL: DVVMTQSPPSLPVTLGQSASISCRSSQSLLHSNGITYLYWFLQRPGQSPRLLIYRMSNLASGVPDRFSGSGSGTDFTLRISRVEAEDVGVYYCMQHLTYPFTFGIGTKVEIK; 1090 pM
Fab fragment of anti-CCR8 antibody 1187 (Fab, V domains shown, also called Fab 51) VH: EVQLVESGGGVVQPGRSLRLSCAASGFPFEPFAMNWVRQAPGKGLEWVARIRSKANNYATYYADSVKDRFAISRDNSKRTLYLLMHSLRFEDTAVYYCVRGRENNYGYAMDYWGQGTTVTVSS VL: DVVMTQSPPSLPVTLGQSASISCRSSQSLLHSNGITYLYWFLQRPGQSPRLLIYRMSNLASGVPDRFSGSGSGTDFTLRISRVEAEDVGVYYCMQHLTYPFTFGIGTKVEIK; 254 pM

Query block: For the binder shown here, engineered anti-CCR8 Fab 953 (Fab, V domains shown, Fab made by digesting the antibody) VH: EVQLVESGGGVVQPGRSLRLSCAASGFPFEPFAMNWVRQAPGKGLEWVARIRSKANNYATYYADSVKDRFAISRDNSKSTLYLLMHSLRFEDTAVYYCVRGRENRYGYAMDYWGQGTTVTVSS VL: DVVMTQSPPSLPVTLGQSASISCRSSQSLLHSNGITYLYWFLQRPGQSPRLLIYRMSNLASGVPDRFSGSGSGTDFTLRISRVEAEDVGVYYCMQHLTYPFTFGIGTKVEIK , give the reported average IC50 of inhibition of CCL1-mediated chemotaxis of hCCR8 P815 cells.
Result block: 150 pM
